The reader will find reported Kd values listed item by item below.
- tested.on: PKR dsRBMs (Homo sapiens, UniProt P19525 9-167)
- Sequence (P19525 9-167): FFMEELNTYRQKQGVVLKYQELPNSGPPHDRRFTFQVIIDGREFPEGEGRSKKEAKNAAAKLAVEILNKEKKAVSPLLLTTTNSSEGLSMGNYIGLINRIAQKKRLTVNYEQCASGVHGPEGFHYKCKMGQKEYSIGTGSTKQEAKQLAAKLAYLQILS
- assay: FP
- condition.context: protein: recombinant; tags: tag cleaved by TEV; label: 3' FAM; hairpin
Supply the numeric figure in µM, leaving out any unit text.

Examples from the recorded data:
GUUAGACCAGAUCUGAGCCUGGGAGCUCUCUGGCUAAC (structured_RNA) [TARΔ9bp]	1.9
TAR A48U/C49G/U50A (structured_RNA) RNA: GGUCUCUCUGGUUAGACCAGAUCUGAGCCUGGGAGCUCUCUGGCUAUGAAGGGAACC	0.36

Reported Kd of CUCUGGUUAGACCAGAUCUGAGCCUGGGAGCUCUCUGGCUAACUAGGG (structured_RNA) [TARΔ4bp] : 0.29
